All figures here come from patent US20250257142A1.

Target: T1, extracellular domain of canine IL-31RA fused to murine IgG2A Fc (canine)
T1 construct: also called Canine IL-31RA-murine IgG2A Fc; Canine IL-31RA-mFc
T1 chain: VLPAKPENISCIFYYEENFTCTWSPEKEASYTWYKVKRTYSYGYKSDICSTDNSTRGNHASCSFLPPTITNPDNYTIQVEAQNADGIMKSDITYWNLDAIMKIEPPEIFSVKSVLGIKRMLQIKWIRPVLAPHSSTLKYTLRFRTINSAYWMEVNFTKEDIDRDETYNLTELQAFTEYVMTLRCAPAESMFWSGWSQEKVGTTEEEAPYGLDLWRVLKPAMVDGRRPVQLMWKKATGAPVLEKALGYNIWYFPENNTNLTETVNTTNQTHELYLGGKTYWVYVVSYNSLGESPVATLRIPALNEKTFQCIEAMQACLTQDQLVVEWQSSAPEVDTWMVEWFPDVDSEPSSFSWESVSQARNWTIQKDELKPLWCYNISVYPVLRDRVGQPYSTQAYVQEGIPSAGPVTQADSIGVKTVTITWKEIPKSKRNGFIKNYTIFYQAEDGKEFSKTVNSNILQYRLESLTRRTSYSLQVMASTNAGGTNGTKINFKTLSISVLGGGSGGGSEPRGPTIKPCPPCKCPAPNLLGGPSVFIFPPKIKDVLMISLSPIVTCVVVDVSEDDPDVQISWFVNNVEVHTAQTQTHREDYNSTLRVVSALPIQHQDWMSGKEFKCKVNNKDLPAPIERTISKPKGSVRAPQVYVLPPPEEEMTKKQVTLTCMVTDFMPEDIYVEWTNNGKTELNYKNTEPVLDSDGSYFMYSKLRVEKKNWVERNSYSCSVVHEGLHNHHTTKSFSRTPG
Assay: SPR Biacore T200, antibody captured on anti-dog H+L chip, canine IL-31RA-mFc as analyte; relative affinity scale: *** 3 pM-100 pM, ** 101 pM-1 nM, * 1.1 nM-20 nM (avidity)
reported_endpoint: relative affinity (apparent KD by SPR)

caninized antibody clone 109-49 (antibody, V domains shown, Canine IgGB and canine kappa constant domains) VH: EVQLVESGGDLVKPGGSLRLSCVASGFTFDDYGMSWVRQAPGKGLQWVSGINWAGGTIGYADAVKGRFTISRDNARNTVYLQMNSLRAEDTAVYYCARESPLRLGDLGGDYFYYYYYMDVWGQGTLVTVSS VL: EVVMIQTPLSLSVSPGEPASISCRASQSVSSRYLVWYLQKPGQSPQLLIYGTSSRATGVSDRFSGSGSGTDFTLRISRVEAEDVGVYYCQQYDNSPRTFGQGTKVEIKR : 0.003 to 0.1 nM
109-49 heavy chain M118I variant with wild-type light chain (antibody, V domains shown, Canine IgGB/kappa; signal peptides left out; also called M118I / Wild-type) VH: EVQLVESGGDLVKPGGSLRLSCVASGFTFDDYGMSWVRQAPGKGLQWVSGINWAGGTIGYADAVKGRFTISRDNARNTVYLQMNSLRAEDTAVYYCARESPLRLGDLGGDYFYYYYYIDVWGQGTLVTVSS VL: EVVMIQTPLSLSVSPGEPASISCRASQSVSSRYLVWYLQKPGQSPQLLIYGTSSRATGVSDRFSGSGSGTDFTLRISRVEAEDVGVYYCQQYDNSPRTFGQGTKVEIKR : 0.003 to 0.1 nM
